assay-summary: Probe calibration by titration with FFA / FFA-BSA complexes: DHA
Type: binding
recorded-conditions: equilibrium dissociation constant of probe for DHA
Text: Calibration: Each probe is calibrated to the extent that the constants in Equation 2 are well determined for all FFAu to be included in profile calculations. Equation 2, which is the form of equation 1 for a single FFAu, relates the FFAu concentration to the equilibrium dissociation constant (Kd), fluorometric constants (Q and Rm) and the measured R values. […]
Kd listing for selected molecules.
Report the value in nM with no unit label.

| molecule | unit-abbreviation | result |
| --- | --- | --- |
| L10P7 A4 L30C: acrylodan-labeled mutant FABP probe: Y14L, M18L, K27A, L30C, G31Y, A73L, Y117A (protein, UniProt P02693 2-132, looked up, variant Y14L M18L K27A L30C G31Y A73L Y117A, acrylodan label, acrylodan-labeled mutant FABP probe: Y14L, M18L, K27A, L30C, G31Y, A73L, Y117A) Fatty acid-binding protein, …: AFDGTWKVDRNENLEKFLEKMGINVVARKCYAHDNLKLTITQEGNKFTVKESSNFRNIDVVFELGVDFAYSLLDGTELTGTWTMEGNKLVGKFKRVDNGKELIAVREISGNELIQTATYEGVEAKRIFKKE | nM | 1.2 |

Please fill in: Kd reported for L11P7 B3 V26C: acrylodan-labeled mutant FABP probe: M21F, V26C, L72A, L78V, L102V (protein, UniProt P02693 2-132, looked up, variant M21F V26C L72A L78V L102V, acrylodan label, acrylodan-labeled mutant FABP probe: M21F, V26C, L72A, L78V, L102V) Fatty acid-binding protein, …: AFDGTWKVDRNENYEKFMEKFGINVCKRKLGAHDNLKLTITQEGNKFTVKESSNFRNIDVVFELGVDFAYSAADGTEVTGTWTMEGNKLVGKFKRVDNGKEVIAVREISGNELIQTYTYEGVEAKRIFKKE = 7.5

Please fill in: Kd reported for L1P8 H2: acrylodan-labeled mutant FABP probe: Y14M, L38M, L72W (protein, UniProt P02693 2-132, looked up, variant Y14M L38M L72W, acrylodan label, acrylodan-labeled mutant FABP probe: Y14M, L38M, L72W) Fatty acid-binding protein, …: AFDGTWKVDRNENMEKFMEKMGINVVKRKLGAHDNLKMTITQEGNKFTVKESSNFRNIDVVFELGVDFAYSWADGTELTGTWTMEGNKLVGKFKRVDNGKELIAVREISGNELIQTYTYEGVEAKRIFKKE = 248

Please fill in: Kd reported for L2P22 G6: acrylodan-labeled mutant FABP probe: M18I, G31Y, A73G (protein, UniProt P02693 2-132, looked up, variant M18I G31Y A73G, acrylodan label, acrylodan-labeled mutant FABP probe: M18I, G31Y, A73G) Fatty acid-binding protein, …: AFDGTWKVDRNENYEKFIEKMGINVVKRKLYAHDNLKLTITQEGNKFTVKESSNFRNIDVVFELGVDFAYSLGDGTELTGTWTMEGNKLVGKFKRVDNGKELIAVREISGNELIQTYTYEGVEAKRIFKKE = 206

Please fill in: Kd reported for ADIFAB2: acrylodan-labeled (lysine 27) mutant FABP probe: L72A (protein, UniProt P02693 2-132, looked up, variant L72A, acrylodan label on K27, acrylodan-labeled (lysine 27) mutant FABP probe: L72A) Fatty acid-binding protein, …: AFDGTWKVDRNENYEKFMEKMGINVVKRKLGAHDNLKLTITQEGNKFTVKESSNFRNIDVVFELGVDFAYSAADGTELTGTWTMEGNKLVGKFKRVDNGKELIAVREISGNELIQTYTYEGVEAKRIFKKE = 253
